Reported values of protein stability index for individual entries
B1: CCDC6 (parent)
chain: ASVTIQARAEQEEEFISNTLFKKI

Variants of: B1
method-description: protein stability index of a GFP-peptide fusion (GPS, HEK-293T) (PSI 1-6); higher = more stable;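 note: lentivirally expressed fusions sorted by FACS into six bins by GFP to DsRed ratio, PSI derived from sequencing read proportions per bin multiplied by bin number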
conditions: c terminus: a fixed tail appended

{"columns": ["mutant-id", "protein stability index"],
 "data": [
  ["T19C", 3.25],
  ["T19A", 3.49],
  ["V3M", 3.5],
  ["E12W", 2.21],
  ["E14V", 2.7],
  ["S2W", 2.37],
  ["N18K", 3.87],
  ["F21M", 4.46],
  ["K22P", 4.13],
  ["Q6W", 2.94],
  ["Q11R", 2.83],
  ["A7T", 3.85],
  ["E10F", 2.29],
  ["S17V", 3.18],
  ["A1Q", 4.09],
  ["E10G", 2.38],
  ["Q11M", 2.29],
  ["K22V", 1.91],
  ["Q6P", 4.2],
  ["Q11Y", 2.91],
  ["A7I", 1.93],
  ["V3Q", 4.42],
  ["N18H", 3.41],
  ["Q6D", 4.32],
  ["A7P", 3.67],
  ["N18F", 2.27],
  ["A9G", 3.67],
  ["F15Y", 3.78],
  ["Q6L", 2.71],
  ["N18T", 3.75],
  ["I24G", 4.48],
  ["F21P", 4.52],
  ["K23P", 3.19],
  ["K23E", 3.89],
  ["V3F", 3.44],
  ["E14I", 2.22],
  ["R8G", 4.13],
  ["I24N", 4.71],
  ["T19G", 4.04]
]}
